system: PPARg DBDmut IVT, anti-PPARg (DBD mutation: PPARg1 K132A/R137A, NR concentration 270 nM); assay: PBM binding z-score (relative to random genomic background probes); higher = stronger binding; sequences stand for … in GC…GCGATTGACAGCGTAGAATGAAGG
Class boundaries, taken from values of PBM binding z-score, are as follows: low (below -0.3), middle (-0.3 to below 0.7), high (0.7 or more)

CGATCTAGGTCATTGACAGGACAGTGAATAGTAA high
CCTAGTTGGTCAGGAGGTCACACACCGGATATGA middle
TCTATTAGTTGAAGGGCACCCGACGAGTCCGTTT high
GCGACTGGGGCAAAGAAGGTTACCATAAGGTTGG low
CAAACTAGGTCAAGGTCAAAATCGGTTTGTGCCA high
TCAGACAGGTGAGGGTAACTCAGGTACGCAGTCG low
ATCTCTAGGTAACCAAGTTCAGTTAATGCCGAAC high
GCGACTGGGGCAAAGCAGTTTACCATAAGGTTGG low
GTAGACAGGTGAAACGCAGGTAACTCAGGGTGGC low
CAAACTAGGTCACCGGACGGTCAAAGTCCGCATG high
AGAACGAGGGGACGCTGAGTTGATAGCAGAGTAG middle
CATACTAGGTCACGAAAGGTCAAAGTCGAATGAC high
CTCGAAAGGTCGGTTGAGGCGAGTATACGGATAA middle
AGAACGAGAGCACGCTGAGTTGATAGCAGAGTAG low
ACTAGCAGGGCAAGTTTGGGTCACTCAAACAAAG middle
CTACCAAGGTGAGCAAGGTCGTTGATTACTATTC middle
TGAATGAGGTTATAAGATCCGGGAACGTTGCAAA middle
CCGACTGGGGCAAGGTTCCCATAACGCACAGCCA low
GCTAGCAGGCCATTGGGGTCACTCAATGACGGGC low
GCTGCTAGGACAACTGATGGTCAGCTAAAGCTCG low
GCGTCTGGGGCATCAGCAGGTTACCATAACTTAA low
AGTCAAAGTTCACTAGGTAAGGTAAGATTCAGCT high
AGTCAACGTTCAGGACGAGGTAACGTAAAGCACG middle
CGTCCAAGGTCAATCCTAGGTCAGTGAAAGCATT high
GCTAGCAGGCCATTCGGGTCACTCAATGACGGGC low
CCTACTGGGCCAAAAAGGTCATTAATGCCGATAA middle
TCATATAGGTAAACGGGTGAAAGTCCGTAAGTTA high
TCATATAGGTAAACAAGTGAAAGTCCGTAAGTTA high
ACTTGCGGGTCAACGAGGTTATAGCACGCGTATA middle
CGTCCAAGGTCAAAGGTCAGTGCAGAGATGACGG high
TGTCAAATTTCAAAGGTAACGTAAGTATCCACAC high
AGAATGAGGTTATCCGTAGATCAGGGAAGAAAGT high
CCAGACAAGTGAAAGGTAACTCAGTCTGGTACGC middle
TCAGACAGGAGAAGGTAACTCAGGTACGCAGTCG low
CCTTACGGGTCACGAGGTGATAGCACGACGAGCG high
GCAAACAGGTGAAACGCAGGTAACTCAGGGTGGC middle
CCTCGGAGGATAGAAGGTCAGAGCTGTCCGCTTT low
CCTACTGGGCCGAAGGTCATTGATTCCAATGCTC low
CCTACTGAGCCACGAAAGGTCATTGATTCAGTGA middle
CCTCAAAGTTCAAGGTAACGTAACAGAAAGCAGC middle

---

tested on: PPARg homodimer (NR concentration 180 nM); assay: PBM binding z-score (relative to random genomic background probes); higher = stronger binding; sequences stand for … in GC…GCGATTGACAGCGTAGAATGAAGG
# PBM binding z-score per entry
Quantity name: PBM binding z-score

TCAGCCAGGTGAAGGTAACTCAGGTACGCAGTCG -0.828
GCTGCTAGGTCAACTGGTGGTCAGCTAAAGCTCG 2.55
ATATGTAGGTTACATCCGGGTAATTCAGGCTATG 1.34
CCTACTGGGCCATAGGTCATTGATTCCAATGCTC 2
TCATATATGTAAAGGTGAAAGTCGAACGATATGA 0.62
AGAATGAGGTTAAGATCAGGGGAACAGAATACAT 1.05
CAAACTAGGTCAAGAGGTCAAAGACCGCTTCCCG 5.54
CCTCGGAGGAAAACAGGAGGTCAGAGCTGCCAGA 1.04
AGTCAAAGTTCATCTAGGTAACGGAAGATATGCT 3.26
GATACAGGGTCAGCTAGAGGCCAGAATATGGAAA 2.63
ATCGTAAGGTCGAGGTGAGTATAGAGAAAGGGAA 1.07
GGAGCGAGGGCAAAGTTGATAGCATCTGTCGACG -0.183
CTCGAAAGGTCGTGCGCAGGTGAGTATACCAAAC 1.83
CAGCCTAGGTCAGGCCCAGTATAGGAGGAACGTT 0.325
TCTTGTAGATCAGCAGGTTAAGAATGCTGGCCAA 0.12
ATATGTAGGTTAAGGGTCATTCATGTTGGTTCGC 3.15
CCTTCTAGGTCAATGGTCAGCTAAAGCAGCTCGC 2.03
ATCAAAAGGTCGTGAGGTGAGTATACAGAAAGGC 2.38
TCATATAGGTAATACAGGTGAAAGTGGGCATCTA 1.79
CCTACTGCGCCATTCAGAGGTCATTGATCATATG 2.61
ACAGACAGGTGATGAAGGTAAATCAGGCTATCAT 0.185
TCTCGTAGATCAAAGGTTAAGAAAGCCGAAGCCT 0.726

---

system: RARa homodimer (NR concentration 270 nM); experiment: PBM binding z-score (relative to random genomic background probes); higher = stronger binding; sequences stand for … in GC…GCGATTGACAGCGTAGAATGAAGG
Quantity name: PBM binding z-score

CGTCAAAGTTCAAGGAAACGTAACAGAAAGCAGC 1.33
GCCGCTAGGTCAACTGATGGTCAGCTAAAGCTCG 0.102
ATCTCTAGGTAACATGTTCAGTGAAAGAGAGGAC -0.388
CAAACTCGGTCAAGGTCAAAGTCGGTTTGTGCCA 1.43
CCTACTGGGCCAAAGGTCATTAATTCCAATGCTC 2.26
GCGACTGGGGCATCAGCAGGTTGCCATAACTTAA -0.648
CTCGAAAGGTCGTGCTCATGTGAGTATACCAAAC 0.231
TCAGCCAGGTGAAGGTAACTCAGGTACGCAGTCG -0.526
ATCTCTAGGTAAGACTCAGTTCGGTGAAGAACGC 0.985
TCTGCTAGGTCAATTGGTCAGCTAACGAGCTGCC -0.436
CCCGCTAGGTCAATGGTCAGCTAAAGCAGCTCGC -0.541
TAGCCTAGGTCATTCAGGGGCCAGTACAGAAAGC -0.153
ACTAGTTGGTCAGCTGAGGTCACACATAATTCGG 1.21
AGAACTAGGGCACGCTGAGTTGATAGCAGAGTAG -0.599
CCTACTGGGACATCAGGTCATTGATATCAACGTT 0.755
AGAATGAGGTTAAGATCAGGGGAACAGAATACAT 0.798
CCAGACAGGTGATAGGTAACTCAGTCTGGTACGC 0.246
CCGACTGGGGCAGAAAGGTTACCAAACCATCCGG -0.491

---

test system: RARb:RXRa (NR concentration 270 nM, RXRa partner concentration 90 nM); assay: PBM binding z-score (relative to random genomic background probes); higher = stronger binding; sequences stand for … in GC…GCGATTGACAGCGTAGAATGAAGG
Quantity name: PBM binding z-score

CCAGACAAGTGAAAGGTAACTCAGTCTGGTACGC 0.247
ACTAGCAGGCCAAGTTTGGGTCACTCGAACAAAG 1.68
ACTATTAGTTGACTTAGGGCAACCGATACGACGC 0.958
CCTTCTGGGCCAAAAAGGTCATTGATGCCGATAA 3.83
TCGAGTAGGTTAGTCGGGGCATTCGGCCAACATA 0.58
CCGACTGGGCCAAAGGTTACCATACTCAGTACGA 2.22
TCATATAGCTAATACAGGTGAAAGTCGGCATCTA 0.139
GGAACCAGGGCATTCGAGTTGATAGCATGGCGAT 1.72
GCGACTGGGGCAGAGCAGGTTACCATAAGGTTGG 0.569
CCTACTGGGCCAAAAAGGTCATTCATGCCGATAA 4.22
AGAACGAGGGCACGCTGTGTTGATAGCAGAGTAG 2.39
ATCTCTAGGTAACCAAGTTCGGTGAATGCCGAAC 0.571
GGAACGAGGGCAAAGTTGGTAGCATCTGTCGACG 2.31
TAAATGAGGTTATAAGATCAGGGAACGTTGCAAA 1.33
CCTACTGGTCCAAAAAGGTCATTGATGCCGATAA 3.94
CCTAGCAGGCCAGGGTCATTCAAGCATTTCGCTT 2.57
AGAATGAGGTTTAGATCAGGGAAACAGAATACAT -0.105
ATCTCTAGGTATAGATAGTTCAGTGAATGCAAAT 0.415
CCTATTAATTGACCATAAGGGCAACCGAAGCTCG 1.42
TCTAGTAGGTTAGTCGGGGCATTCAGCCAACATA 0.996
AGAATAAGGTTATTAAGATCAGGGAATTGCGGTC 1.72
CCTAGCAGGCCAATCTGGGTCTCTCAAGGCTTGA 0.0483
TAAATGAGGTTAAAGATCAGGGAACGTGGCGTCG 2.29
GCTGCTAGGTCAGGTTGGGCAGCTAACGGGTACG 3.17
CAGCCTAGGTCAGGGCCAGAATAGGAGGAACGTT 3.49
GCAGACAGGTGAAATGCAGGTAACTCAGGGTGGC 0.683
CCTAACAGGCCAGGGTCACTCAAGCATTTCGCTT 2.85
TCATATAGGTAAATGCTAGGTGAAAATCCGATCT 0.432
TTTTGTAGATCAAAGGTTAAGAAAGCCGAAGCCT 2.07
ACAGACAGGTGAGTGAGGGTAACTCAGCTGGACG 0.987
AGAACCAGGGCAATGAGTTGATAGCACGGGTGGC 0.985
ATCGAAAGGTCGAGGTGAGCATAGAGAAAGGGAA 4.27
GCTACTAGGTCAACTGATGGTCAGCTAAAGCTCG 4.25
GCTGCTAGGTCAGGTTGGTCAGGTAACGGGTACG 3.15
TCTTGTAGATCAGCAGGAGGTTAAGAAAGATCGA 0.468
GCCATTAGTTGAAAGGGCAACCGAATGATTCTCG 2.21
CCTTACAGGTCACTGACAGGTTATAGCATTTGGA 4.67
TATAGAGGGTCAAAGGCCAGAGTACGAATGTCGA 4.11
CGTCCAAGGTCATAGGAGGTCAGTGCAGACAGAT 5.33
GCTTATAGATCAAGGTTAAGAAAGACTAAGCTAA 0.997
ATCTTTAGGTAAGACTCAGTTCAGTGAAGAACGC 0.585
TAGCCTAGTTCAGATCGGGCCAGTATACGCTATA 0.472
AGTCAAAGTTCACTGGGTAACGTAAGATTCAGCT 4.81
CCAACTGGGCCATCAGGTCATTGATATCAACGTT 2.05
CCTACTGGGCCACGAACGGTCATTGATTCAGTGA 1.42
